Experiment notes: Cytotoxicity, cell viability by ATPLite Kit
Format: cell-based, human
Setup conditions: human, Huh7 cells (human hepatoma cell line), 10% FBS, maximal inhibition, read-out: Cytotox gT1b 10% FBS max. inh.
Procedure: The cytotoxicity of the test compounds was studied in parallel using the same cell line, Huh7. Cell viability was determined using the ATPLite Kit (Perkin-Elmer, Boston, USA), according to manufacturer's instructions. […] After additional 5-min incubation, the plates were kept in dark for 10 min, and the luminescence was read using TopCount NXT (Packard, Perkin Elmer). CC50 values for all test compounds were determined using XLfit 4.1 software (Table 2).
Where a name gives a salt, the structure may show the parent alone.
Value type: inhibition at 96 h (%)
Numbers only, in %.

>  <Molecule>
COC(=O)N[C@H](C(=O)N1CCC[C@H]1c1ncc(-c2ccc(C#CC#Cc3cnc([C@@H]4CCCN4C(=O)[C@H](NC(=O)OC)c4ccccc4)[nH]3)c(Oc3ccccc3)c2)[nH]1)C(C)C [2(19)•2HCl, dihydrochloride]

>  <Scale unit>
%

>  <Result value>
38

$$$$
>  <Molecule>
COC(=O)N[C@H](C(=O)N1CCC[C@H]1c1ncc(-c2ccc(C#CC#Cc3cnc([C@@H]4CCCN4C(=O)[C@H](NC(=O)OC)c4ccccc4)[nH]3)c(-c3cccnc3)c2)[nH]1)C(C)C [2(16)•2HCl, trihydrochloride]

>  <Scale unit>
%

>  <Result value>
32

$$$$
>  <Molecule>
COC(=O)N[C@H](C(=O)N1CCC[C@H]1c1ncc(C#CC#Cc2ccc(-c3cnc([C@@H]4CCCN4C(=O)[C@@H](NC(=O)OC)C(C)C)[nH]3)cc2-c2cccc(C(C)(C)C)c2)[nH]1)C(C)C [2(2)•2HCl, dihydrochloride]

>  <Scale unit>
%

>  <Result value>
38

$$$$

Provide inhibition at 96 h for all items below, preserving their order.
1. COC(=O)N[C@H](C(=O)N1CCC[C@H]1c1ncc(-c2ccc(C#CC#Cc3cnc([C@@H]4CCCN4C(=O)[C@H](NC(=O)OC)c4ccccc4)[nH]3)c(-c3ccccc3)c2)[nH]1)C(C)C.Cl.Cl [2(7)•2HCl, dihydrochloride]
2. COC(=O)N[C@H](C(=O)N1CCC[C@H]1c1ncc(C#CC#Cc2ccc(-c3cnc([C@@H]4CCCN4C(=O)[C@H](NC(=O)OC)c4ccccc4)[nH]3)cc2-c2ccccc2)[nH]1)C(C)C [2(30)•2HCl, dihydrochloride]
3. COC(=O)N[C@H](C(=O)N1CCC[C@H]1c1ncc(-c2ccc(-c3ccc(-c4cnc([C@@H]5CCCN5C(=O)[C@H](NC(=O)OC)c5ccccc5)[nH]4)cc3)c(Oc3ccccc3)c2)[nH]1)C(C)C [2(23)•2HCl, dihydrochloride]
4. COC(=O)N[C@H](C(=O)N1CCC[C@H]1c1ncc(-c2ccc(C#CC#Cc3cnc([C@@H]4CCCN4C(=O)[C@H](NC(=O)OC)c4ccccc4)[nH]3)c(-c3cccc(-c4ccccc4)c3)c2)[nH]1)C(C)C [2(12)•2HCl, dihydrochloride]
5. COC(=O)N[C@H](C(=O)N1CCC[C@H]1c1ncc(C#CC#Cc2ccc(-c3cnc([C@@H]4CCCN4C(=O)[C@@H](NC(=O)OC)C(C)C)[nH]3)cc2-c2ccc3ccccc3c2)[nH]1)C(C)C [2(4)•2HCl, dihydrochloride]
6. COC(=O)N[C@H](C(=O)N1CCC[C@H]1c1ncc(-c2ccc(-c3ccc(-c4cnc([C@@H]5CCCN5C(=O)[C@H](NC(=O)OC)c5ccccc5)[nH]4)cc3)c(-c3ccccc3)c2)[nH]1)C(C)C [2(22)•2HCl, dihydrochloride]

*A*
32
33
27
29
31
30

---

System: HCV gT1b replicon
Experiment notes: HCV replicon assay, gT1b
Type: cell-based, Hepatitis C virus (HCV)
Setup conditions: Hepatitis C virus, GT1B, Huh-7; 40% NHS; Huh7 replicon cells; mean value; read-out: gT1b 40% NHS, EC50 (pM) mean
Where a name gives a salt, the structure may show the parent alone.
Doc: threshold 10 pM (exclusive). Items with EC50 beneath it return t; others return f.

Solved entries (count: 5):
>  <Compound>
COC(=O)N[C@H](C(=O)N1CCC[C@H]1c1ncc(C#CC#Cc2ccc(-c3cnc([C@@H]4CCCN4C(=O)[C@@H](NC(=O)OC)C(C)C)[nH]3)cc2-c2cccc(-c3ccccc3)c2)[nH]1)C(C)C [2(3)•2HCl, dihydrochloride]

>  <Cat>
f

$$$$
>  <Compound>
COC(=O)N[C@H](C(=O)N1CCC[C@H]1c1ncc(-c2cc(C)c(-c3ccc(-c4cnc([C@@H]5CCCN5C(=O)[C@H](NC(=O)OC)c5ccccc5)[nH]4)cc3)c(-c3ccccc3)c2)[nH]1)C(C)C [2(27)•2HCl, dihydrochloride]

>  <Cat>
f

$$$$
>  <Compound>
COC(=O)N[C@H](C(=O)N1CCC[C@H]1c1ncc(C#CC#Cc2ccc(-c3cnc([C@@H]4CCCN4C(=O)[C@@H](NC(=O)OC)C(C)C)[nH]3)cc2-c2ccc3ccccc3c2)[nH]1)C(C)C [2(4)•2HCl, dihydrochloride]

>  <Cat>
f

$$$$
>  <Compound>
COC(=O)N[C@H](C(=O)N1CCC[C@H]1c1ncc(-c2ccc(C#CC#Cc3cnc([C@@H]4CCCN4C(=O)[C@H](NC(=O)OC)c4ccccc4)[nH]3)c(-c3ccc(C(C)(C)C)cc3)c2)[nH]1)C(C)C [2(11)•2HCl, dihydrochloride]

>  <Cat>
f

$$$$
>  <Compound>
COC(=O)N[C@H](C(=O)N1CCC[C@H]1c1ncc(-c2ccc(-c3ccc(-c4cnc([C@@H]5CCCN5C(=O)[C@H](NC(=O)OC)c5ccccc5)[nH]4)cc3)c(-c3ccccc3)c2)[nH]1)C(C)C [2(22)•2HCl, dihydrochloride]

>  <Cat>
f

$$$$

Alright, here's another compound for you.
*Q* In plain terms, does COC(=O)N[C@H](C(=O)N1CCC[C@H]1c1ncc(-c2ccc(-c3ccc(-c4cnc([C@@H]5CCCN5C(=O)[C@H](NC(=O)OC)c5ccccc5)[nH]4)cc3)c(Sc3ccccc3)c2)[nH]1)C(C)C [2(24)•2HCl, dihydrochloride] come in under 10 pM for EC50?
*A* t

---

Experiment notes: Cytotoxicity, cell viability by ATPLite Kit
Format: cell-based, human
Setup conditions: human, Huh7 cells (human hepatoma cell line), 10% FBS, maximal inhibition, read-out: Cytotox gT1b 10% FBS max. inh.
Where a name gives a salt, the structure may show the parent alone.
So I've got a bunch of compounds here, and I need their inhibition at 96 h values.
Answers are plain numbers, in %.

Examples with answers:
>  <Compound>
COC(=O)N[C@H](C(=O)N1CCC[C@H]1c1ncc(-c2ccc(C#CC#Cc3cnc([C@@H]4CCCN4C(=O)[C@H](NC(=O)OC)c4ccccc4)[nH]3)c(-c3ccc(-c4ccccc4)cc3)c2)[nH]1)C(C)C [2(13)•2HCl, dihydrochloride]

>  <Scale unit>
%

>  <inhibition at 96 h>
24

$$$$
>  <Compound>
COC(=O)N[C@H](C(=O)N1CCC[C@H]1c1ncc(-c2ccc(C#CC#Cc3cnc([C@@H]4CCCN4C(=O)[C@H](NC(=O)OC)c4ccccc4)[nH]3)c(-c3ccc(N4CCN(C)CC4)cc3)c2)[nH]1)C(C)C [2(15)•2HCl]

>  <Scale unit>
%

>  <inhibition at 96 h>
82

$$$$
>  <Compound>
COC(=O)N[C@H](C(=O)N1CCC[C@H]1c1ncc(C#CC#Cc2ccc(-c3cnc([C@@H]4CCCN4C(=O)[C@@H](NC(=O)OC)C(C)C)[nH]3)cc2-c2cccc(-c3ccccc3)c2)[nH]1)C(C)C [2(3)•2HCl, dihydrochloride]

>  <Scale unit>
%

>  <inhibition at 96 h>
29

$$$$
>  <Compound>
COC(=O)N[C@H](C(=O)N1CCC[C@H]1c1ncc(-c2ccc(C#CC#Cc3cnc([C@@H]4CCCN4C(=O)[C@H](NC(=O)OC)c4ccccc4)[nH]3)c(-c3ccc(C(C)(C)C)cc3)c2)[nH]1)C(C)C [2(11)•2HCl, dihydrochloride]

>  <Scale unit>
%

>  <inhibition at 96 h>
29

$$$$
>  <Compound>
COC(=O)N[C@H](C(=O)N1CCC[C@H]1c1ncc(-c2ccc(C#CC#Cc3cnc([C@@H]4CCCN4C(=O)[C@H](NC(=O)OC)c4ccccc4)[nH]3)c(-c3cccc(C(C)(C)C)c3)c2)[nH]1)C(C)C [2(10)•2HCl, dihydrochloride]

>  <Scale unit>
%

>  <inhibition at 96 h>
37

$$$$

Provide inhibition at 96 h for all items below, preserving their order.
1. COC(=O)N[C@H](C(=O)N1CCC[C@H]1c1ncc(-c2ccc(-c3ccc(-c4cnc([C@@H]5CCCN5C(=O)[C@H](NC(=O)OC)c5ccccc5)[nH]4)cc3)c(Sc3ccccc3)c2)[nH]1)C(C)C [2(24)•2HCl, dihydrochloride]
2. COC(=O)N[C@H](C(=O)N1CCC[C@H]1c1ncc(-c2ccc(-c3ccc(-c4cnc([C@@H]5CCCN5C(=O)[C@H](NC(=O)OC)c5ccccc5)[nH]4)cc3)c(N(C)c3ccccc3)c2)[nH]1)C(C)C [2(25)•2HCl, trihydrochloride]

*A*
42
18

*Q* Which inhibition at 96 h value is on record for COC(=O)N[C@H](C(=O)N1CCC[C@H]1c1ncc(-c2cc(C)c(C#CC#Cc3cnc([C@@H]4CCCN4C(=O)[C@H](NC(=O)OC)c4ccccc4)[nH]3)c(-c3ccccc3)c2)[nH]1)C(C)C [2(18)•2HCl, dihydrochloride] ?
*A* 12
